Test system: Leishmania amazonensis promastigotes expressing beta-lactamase
measurement_notes: microbe, parasite or virus in culture
Format: cell-based
condition_description: Table 2; L6 IC50 / L. amazonensis IC50
Collected Selectivity L6/La values appear next to each entry.

- compound: "Cc1ccc2c(c1)C(=O)/C(=C/c1ccc(C#N)cc1)O2 [Aurone 4001]"
  Selectivity L6/La: 1.98
- compound: "O=C1/C(=C/c2cc3ccccc3o2)Oc2ccccc21 [Aurone 3002]"
  Selectivity L6/La: ">15.43"
- compound: "O=C1/C(=C/c2ccc(/C=C3\\Oc4ccccc4C3=O)cc2)Oc2ccccc21 [Aurone 6617]"
  Selectivity L6/La: ">110.50"
- compound: "Cc1ccc(/C=C2\\Oc3ccccc3C2=O)cc1 [Aurone 9065]"
  Selectivity L6/La: ">72.99"
- compound: "O=C1/C(=C/c2ccc(Cl)cc2)Oc2ccccc21 [Aurone 9019]"
  Selectivity L6/La: ">2.41"
- compound: "O=C1/C(=C/c2ccccc2Cl)Oc2ccccc21 [Aurone 9007]"
  Selectivity L6/La: 13.55
- compound: "COc1ccc(/C=C2\\Oc3ccc(C)cc3C2=O)c(OC)c1OC [Aurone 4004]"
  Selectivity L6/La: 10.86
- compound: "O=C1/C(=C/c2ccc(Br)s2)Oc2ccccc21 [Aurone 9058]"
  Selectivity L6/La: 29.05
- compound: "COc1ccc(/C=C2\\Oc3cc(O)ccc3C2=O)cc1 [Aurone 6620]"
  Selectivity L6/La: ">100"
- compound: "O=C1/C(=C/c2ccccc2Br)Oc2ccccc21 [Aurone 9006]"
  Selectivity L6/La: ">226.08"

----------
Collected pIC50 values appear next to each entry.
Tested on: rat skeletal muscle cell line, L6
measurement_notes: cells
Format: cell-based
condition_description: Rattus norvegicus; Table 3B; weighted means of two or more independent trials; read-out: IC50 L6
pIC50: −log10 of the molar value.
attribute_measured: pIC50

- molecule: "O=C1/C(=C/c2cc3ccccc3o2)Oc2ccccc21 [Aurone 3002]"
  recorded_measurement: "< 4.00"
- molecule: "O=C1/C(=C/c2ccoc2)Oc2ccccc21 [Aurone 3005]"
  recorded_measurement: "< 4.00"
- molecule: "O=C1/C(=C/c2cccc(Br)n2)Oc2ccccc21 [Aurone 9260]"
  recorded_measurement: "< 4.00"
- molecule: "O=C1/C(=C/c2ccc(Br)cn2)Oc2ccccc21 [Aurone 3011]"
  recorded_measurement: "< 4.00"
- molecule: "O=C1/C(=C/c2cnc[nH]2)Oc2ccccc21 [Aurone 6621]"
  recorded_measurement: "< 4.00"
- molecule: "O=C1/C(=C/c2ccsc2)Oc2ccccc21 [Aurone 3004]"
  recorded_measurement: "< 4.00"
- molecule: "O=C1/C(=C/c2cccs2)Oc2ccccc21 [Aurone 2004]"
  recorded_measurement: "< 4.00"
- molecule: "O=C1/C(=C/c2cc(Br)cs2)Oc2ccccc21 [Aurone 9061]"
  recorded_measurement: "< 4.00"
- molecule: "O=C1/C(=C/c2cccnc2)Oc2ccccc21 [Aurone 9253]"
  recorded_measurement: "< 4.00"
- molecule: "O=C1/C(=C/c2sccc2Br)Oc2ccccc21 [Aurone 9060]"
  recorded_measurement: "< 4.00"
- molecule: "O=C1/C(=C/c2ncc[nH]2)Oc2ccccc21 [Aurone 2026]"
  recorded_measurement: "< 4.00"
- molecule: "O=C1/C(=C/c2ccco2)Oc2ccccc21 [Aurone 2023]"
  recorded_measurement: "< 4.00"
- molecule: "O=C1/C(=C/c2cc(Br)c(Br)s2)Oc2ccccc21 [Aurone 9050]"
  recorded_measurement: "< 4.00"

----------
Collected IC50 values appear next to each entry.
System: rat skeletal muscle cell line, L6
measurement_notes: cells
Format: cell-based
condition_description: Rattus norvegicus; Table 1; read-out: IC50 Toxicity (L6)

- structure: "CC(=O)Nc1ccc(/C=C2\\Oc3ccccc3C2=O)cc1"
  censor_symbol: ">"
  IC50, µM: 100
- structure: "Cc1ccc2c(c1)C(=O)/C(=C/c1ccc(Br)cc1)O2"
  censor_symbol: ">"
  IC50, µM: 100
- structure: "O=C1/C(=C/c2ccc(O)cc2)Oc2ccccc21"
  censor_symbol: ">"
  IC50, µM: 200
- structure: "O=C1/C(=C/c2ccccc2Cl)Oc2ccccc21"
  censor_symbol: "="
  IC50, µM: 238
- structure: "O=C1/C(=C/c2ccccc2Br)Oc2ccccc21"
  censor_symbol: "="
  IC50, µM: 226

----------
Tested on: rat skeletal muscle cell line, L6
measurement_notes: cells
Assay type: cell-based
condition_description: Rattus norvegicus; Table 1; read-out: IC50 Toxicity (L6)
pIC50: −log10 of the molar value.
Collected pIC50 values appear next to each entry.
attribute_measured: pIC50

- compound: "O=C1/C(=C/c2ccc(Br)s2)Oc2ccccc21 [Aurone 9058]"
  attribute_measured: "pIC50"
  censor_symbol: "="
  recorded_measurement: 4.10
- compound: "O=C1/C(=C/c2cccnc2)Oc2ccccc21 [Aurone 9253]"
  attribute_measured: "pIC50"
  censor_symbol: ">"
  recorded_measurement: 4.00
- compound: "O=C1/C(=C/c2ccccn2)Oc2ccccc21 [Aurone 9051]"
  attribute_measured: "pIC50"
  censor_symbol: "="
  recorded_measurement: 4.10
- compound: "Cc1cccc(/C=C2\\Oc3ccccc3C2=O)c1 [Aurone 9064]"
  attribute_measured: "pIC50"
  censor_symbol: "="
  recorded_measurement: 4.10

----------
Test system: Trypanosoma cruzi Tulahuen cells expressing beta-galactosidase
measurement_notes: T. cruzi intracellular assay (beta-galactosidase, L6 host cells)
condition_description: Table 2; L6 IC50 / T. cruzi IC50 (intracellular assay)
Collected Selectivity L6/Tc values appear next to each entry.

- structure: "Cc1[nH]cnc1/C=C1\\Oc2ccccc2C1=O"
  censor_symbol: "="
  Selectivity L6/Tc: 61.09
- structure: "O=C1/C(=C/c2ccc(Br)cn2)Oc2ccccc21"
  censor_symbol: ">"
  Selectivity L6/Tc: 3.04
- structure: "O=C1/C(=C/c2cccc(Br)c2)Oc2ccccc21"
  censor_symbol: ">"
  Selectivity L6/Tc: 13.61
- structure: "O=C1/C(=C/c2ccccc2F)Oc2ccccc21"
  censor_symbol: "="
  Selectivity L6/Tc: 8.00

----------
Tested on: Leishmania amazonensis promastigotes expressing beta-lactamase
measurement_notes: microbe, parasite or virus in culture
Type: cell-based
condition_description: Table 2; L6 IC50 / L. amazonensis IC50
attribute_measured: Selectivity L6/La

- structure: "O=C1/C(=C/c2ccc(C(F)(F)F)cc2)Oc2ccc(Br)cc21"
  attribute_measured: "Selectivity L6/La"
  recorded_measurement: ">13.72"
- structure: "COc1ccc(/C=C2\\Oc3ccccc3C2=O)cc1"
  attribute_measured: "Selectivity L6/La"
  recorded_measurement: ">30.30"
- structure: "CC(C)(C)c1ccc(/C=C2\\Oc3ccccc3C2=O)cc1"
  attribute_measured: "Selectivity L6/La"
  recorded_measurement: 27.81
- structure: "N#Cc1ccc(/C=C2\\Oc3ccc(Br)cc3C2=O)cc1"
  attribute_measured: "Selectivity L6/La"
  recorded_measurement: ">81.97"
- structure: "O=C1/C(=C/c2ccc(Br)cn2)Oc2ccccc21"
  attribute_measured: "Selectivity L6/La"
  recorded_measurement: ">38.31"
- structure: "O=C1/C(=C/c2ccc(C(F)(F)F)cc2)Oc2cc(O)ccc21"
  attribute_measured: "Selectivity L6/La"
  recorded_measurement: ">25.19"
- structure: "O=C1/C(=C/c2ccoc2)Oc2ccccc21"
  attribute_measured: "Selectivity L6/La"
  recorded_measurement: ">2.34"
- structure: "N=C1/C(=C/c2ccccn2)Oc2ccc(F)cc21"
  attribute_measured: "Selectivity L6/La"
  recorded_measurement: ">200"
- structure: "O=C1/C(=C/c2cccc(F)c2)Oc2ccccc21"
  attribute_measured: "Selectivity L6/La"
  recorded_measurement: ">4.98"
- structure: "COc1cc(OC)c2c(c1)O/C(=C\\c1ccc(C#N)cc1)C2=O"
  attribute_measured: "Selectivity L6/La"
  recorded_measurement: 39.68
- structure: "O=C1/C(=C/c2cc(Br)cc(Br)c2O)Oc2ccccc21"
  attribute_measured: "Selectivity L6/La"
  recorded_measurement: ">82.64"
- structure: "CCCCc1ccc(/C=C2\\Oc3ccccc3C2=O)cc1"
  attribute_measured: "Selectivity L6/La"
  recorded_measurement: 14.84

----------
Collected pIC50 values appear next to each entry.
System: Leishmania amazonensis promastigotes expressing beta-lactamase
measurement_notes: microbe, parasite or virus in culture
Format: cell-based
condition_description: Leishmania amazonensis, read-out: IC50 L. amaz.
Procedure: Leishmania amazonensis promastigotes expressing beta-lactamase (Buckner et al., Am. J. Trop. Med. Hyg. 72 (2005) 600-605. doi:72/5/600 [pii]) were cultured in RPMI supplemented with 10% fetal calf serum and 1% pen-strep-glut solution (Sigma) at 27° C. Stationary phase promastigotes were adjusted in fresh media, treated with compounds, and incubated at 37° C. […] Luminescence readings were taken with a spectrophotometer and used to calculate inhibition.
pIC50: −log10 of the molar value.

- structure: "CC(=O)N1/C(=C\\c2ccc[nH]2)C(=O)c2ccccc21"
  target_desc: "Leishmania amazonensis promastigotes expressing beta-lactamase"
  pIC50: "> 6.00"
- structure: "O=C1/C(=C/c2ccccc2Br)Oc2ccccc21"
  target_desc: "Leishmania amazonensis promastigotes expressing beta-lactamase"
  pIC50: "> 6.00"
- structure: "O=C1/C(=C/c2cnc[nH]2)Oc2ccccc21"
  target_desc: "Leishmania amazonensis promastigotes expressing beta-lactamase"
  pIC50: "< 4.30"
- structure: "O=C1/C(=C/c2cccc(Br)c2)Oc2ccccc21"
  target_desc: "Leishmania amazonensis promastigotes expressing beta-lactamase"
  pIC50: "> 6.00"
